Assign MIC to each entry below.
Express the result in µg/mL but write the number alone.

Exercise: Please indicate recorded MIC of NC(=S)NC[C@H]1CN(c2ccc(N3CC[S+]([O-])CC3)c(F)c2)C(=O)O1 measured with Haemophilus influenzae (HINF 30063).
Key: 4

Exercise: Please indicate recorded MIC of CC(=S)NC[C@H]1CN(c2ccc(N3CCSCC3)c(F)c2)C(=O)O1 measured with Haemophilus influenzae (HINF 30063).
Key: 16

Exercise: Please indicate recorded MIC of NC(=S)NC[C@H]1CN(c2ccc(C3CC[S+]([O-])CC3)c(F)c2)C(=O)O1 (stereo partly drawn) measured with Haemophilus influenzae (HINF 30063).
Key: 2

Exercise: Please indicate recorded MIC of CC(=S)NC[C@H]1CN(c2ccc(N3CCOCC3)c(F)c2)C(=O)O1 measured with Haemophilus influenzae (HINF 30063).
Key: 8

Exercise: Please indicate recorded MIC of NC(=S)NC[C@H]1CN(c2ccc(N3CCOCC3)c(F)c2)C(=O)O1 measured with Haemophilus influenzae (HINF 30063).
Key: 4

Exercise: Please indicate recorded MIC of NC(=S)NC[C@H]1CN(c2ccc([C@H]3CC[S@@+]([O-])CC3)c(F)c2)C(=O)O1 measured with Haemophilus influenzae (HINF 30063).
Key: 4

Exercise: Please indicate recorded MIC of CC(=S)NC[C@H]1CN(c2ccc(N3CCC4(CC3)NC(=O)NC4=O)c(F)c2)C(=O)O1 measured with Haemophilus influenzae (HINF 30063).
Key: 16

Exercise: Please indicate recorded MIC of CC(=S)NC[C@H]1CN(c2ccc(N3CCN(C(=O)CO)CC3)c(F)c2)C(=O)O1 measured with Haemophilus influenzae (HINF 30063).
Key: 2

* * *

test system: S. aureus (SAUR 9213); experiment: MIC, standard agar dilution method; assay type: cell-based; conditions: Table II, Mueller Hinton agar, incubated overnight at 35° C.
Assign SAUR 9213 MIC to each entry below.
Express the result in µg/mL but write the number alone.

Exercise: Tell me its SAUR 9213 MIC given COC(=S)NC[C@H]1CN(c2ccc(N3CCOCC3)c(F)c2)C(=O)O1 [Example 35] as the entry.
Key: 1

Exercise: Tell me its SAUR 9213 MIC given N#CCC(=S)NC[C@H]1CN(c2ccc(N3CCOCC3)c(F)c2)C(=O)O1 [Example 19] as the entry.
Key: 32

Exercise: Tell me its SAUR 9213 MIC given CSC(=S)NC[C@H]1CN(c2ccc(N3CCOCC3)c(F)c2)C(=O)O1 [Example 34] as the entry.
Key: 2

Exercise: Tell me its SAUR 9213 MIC given CC(=S)NC[C@H]1CN(c2ccc(N3CCS(=O)(=O)CC3)c(F)c2)C(=O)O1 [Example 28] as the entry.
Key: 0.5

* * *

Assign MIC to each entry below.
System: S. pneumoniae (SPNE 9912)
Test: MIC, standard agar dilution method
Type: cell-based
Settings: Streptococcus pneumoniae, Table II, Mueller Hinton agar, incubated overnight at 35° C., read-out: SPNE 9912 MIC
Description: MIC Test Method The in vitro MICs of test compounds were determined by a standard agar dilution method. […] Serial 2-fold dilutions of each sample are made using 1.0 ml aliquots of sterile distilled water. To each 1.0 ml aliquot of drug is added 9 ml of molten Mueller Hinton agar medium. […] Following incubation the Minimum Inhibitory Concentration (MIC μg/ml), the lowest concentration of drug that inhibits visible growth of the organism, is read and recorded.

Exercise: Please indicate recorded MIC of CC(=S)NC[C@H]1CN(c2ccc([C@H]3CC[S@+]([O-])CC3)c(F)c2)C(=O)O1 measured with S. pneumoniae (SPNE 9912).
Key: < 0.125 µg/mL

Exercise: Please indicate recorded MIC of O=C1O[C@@H](CNC(=S)C(F)F)CN1c1ccc(N2CCOCC2)c(F)c1 measured with S. pneumoniae (SPNE 9912).
Key: < 0.5 µg/mL

Exercise: Please indicate recorded MIC of NC(=S)NC[C@H]1CN(c2ccc(N3CCOCC3)c(F)c2)C(=O)O1 measured with S. pneumoniae (SPNE 9912).
Key: < 0.125 µg/mL

Exercise: Please indicate recorded MIC of CC(=S)NC[C@H]1CN(c2ccc(N3CCN(c4nnc(C)s4)CC3)c(F)c2)C(=O)O1 measured with S. pneumoniae (SPNE 9912).
Key: 2 µg/mL

Exercise: Please indicate recorded MIC of CC(=S)NC[C@H]1CN(c2ccc3c(c2)CCN3C(=O)CO)C(=O)O1 measured with S. pneumoniae (SPNE 9912).
Key: < 0.125 µg/mL

Exercise: Please indicate recorded MIC of NC(=S)NC[C@H]1CN(c2ccc(-n3cncn3)c(F)c2)C(=O)O1 measured with S. pneumoniae (SPNE 9912).
Key: < 0.125 µg/mL

Exercise: Please indicate recorded MIC of CC(=S)NC[C@H]1CN(c2ccc(N3CCC4(CC3)NC(=O)NC4=O)c(F)c2)C(=O)O1 measured with S. pneumoniae (SPNE 9912).
Key: 0.25 µg/mL

Exercise: Please indicate recorded MIC of CCC(=S)NC[C@H]1CN(c2ccc(N3CCOCC3)c(F)c2)C(=O)O1 measured with S. pneumoniae (SPNE 9912).
Key: 0.25 µg/mL

Exercise: Please indicate recorded MIC of CC(=S)NC[C@H]1CN(c2ccc(C3CCS(=O)(=O)CC3)c(F)c2)C(=O)O1 measured with S. pneumoniae (SPNE 9912).
Key: < 0.125 µg/mL

Exercise: Please indicate recorded MIC of CC(=S)NC[C@H]1CN(c2ccc(N3CCN(C(=O)CO)CC3)c(F)c2)C(=O)O1 measured with S. pneumoniae (SPNE 9912).
Key: < 0.125 µg/mL

Exercise: Please indicate recorded MIC of CC(=S)NC[C@H]1CN(c2ccc(N3CCOCC3)c(F)c2)C(=O)O1 measured with S. pneumoniae (SPNE 9912).
Key: < 0.125 µg/mL

Exercise: Please indicate recorded MIC of CC(=S)NC[C@H]1CN(c2ccc(N3CC[S+]([O-])CC3)c(F)c2)C(=O)O1 measured with S. pneumoniae (SPNE 9912).
Key: < 0.125 µg/mL

Exercise: Please indicate recorded MIC of O=C1O[C@@H](CNC=S)CN1c1ccc(N2CCOCC2)c(F)c1 measured with S. pneumoniae (SPNE 9912).
Key: 0.5 µg/mL

Exercise: Please indicate recorded MIC of NC(=S)NC[C@H]1CN(c2ccc3c(c2)CCN3C(=O)CO)C(=O)O1 measured with S. pneumoniae (SPNE 9912).
Key: 0.25 µg/mL

Exercise: Please indicate recorded MIC of O=C1O[C@@H](CNC(=S)CCl)CN1c1ccc(N2CCOCC2)c(F)c1 measured with S. pneumoniae (SPNE 9912).
Key: 4 µg/mL

Exercise: Please indicate recorded MIC of CC(=S)NC[C@H]1CN(c2cc(F)c(N3CCN(C(=O)CO)CC3)c(F)c2)C(=O)O1 measured with S. pneumoniae (SPNE 9912).
Key: < 0.125 µg/mL

Exercise: Please indicate recorded MIC of CC(=S)NC[C@H]1CN(c2ccc(N3CCSCC3)c(F)c2)C(=O)O1 measured with S. pneumoniae (SPNE 9912).
Key: 0.25 µg/mL

Exercise: Please indicate recorded MIC of NC(=S)NC[C@H]1CN(c2ccc(N3CCN(C(=O)CO)CC3)c(F)c2)C(=O)O1 measured with S. pneumoniae (SPNE 9912).
Key: < 0.125 µg/mL

Exercise: Please indicate recorded MIC of NC(=S)NC[C@H]1CN(c2ccc(C3CCS(=O)(=O)CC3)c(F)c2)C(=O)O1 measured with S. pneumoniae (SPNE 9912).
Key: < 0.125 µg/mL

Exercise: Please indicate recorded MIC of O=C1O[C@@H](CNC(=S)C(F)(F)F)CN1c1ccc(N2CCOCC2)c(F)c1 measured with S. pneumoniae (SPNE 9912).
Key: 2 µg/mL

Exercise: Please indicate recorded MIC of NC(=S)NC[C@H]1CN(c2ccc(N3CC[S+]([O-])CC3)c(F)c2)C(=O)O1 measured with S. pneumoniae (SPNE 9912).
Key: 0.25 µg/mL

Exercise: Please indicate recorded MIC of CC(=S)NC[C@H]1CN(c2ccc(-n3cncn3)c(F)c2)C(=O)O1 measured with S. pneumoniae (SPNE 9912).
Key: < 0.125 µg/mL

Exercise: Please indicate recorded MIC of CC(=S)NC[C@H]1CN(c2ccc([C@H]3CC[S@@+]([O-])CC3)c(F)c2)C(=O)O1 measured with S. pneumoniae (SPNE 9912).
Key: < 0.125 µg/mL

Exercise: Please indicate recorded MIC of NC(=S)NC[C@H]1CN(c2ccc([C@H]3CC[S@@+]([O-])CC3)c(F)c2)C(=O)O1 measured with S. pneumoniae (SPNE 9912).
Key: < 0.125 µg/mL

Exercise: Please indicate recorded MIC of NC(=S)NC[C@H]1CN(c2ccc(C3CC[S+]([O-])CC3)c(F)c2)C(=O)O1 (some centres unmarked) measured with S. pneumoniae (SPNE 9912).
Key: < 0.125 µg/mL

Exercise: Please indicate recorded MIC of CNC(=S)NC[C@H]1CN(c2ccc(N3CCOCC3)c(F)c2)C(=O)O1 measured with S. pneumoniae (SPNE 9912).
Key: 0.5 µg/mL

Origin of values: patent US6537986B2
